Target protein (sequence): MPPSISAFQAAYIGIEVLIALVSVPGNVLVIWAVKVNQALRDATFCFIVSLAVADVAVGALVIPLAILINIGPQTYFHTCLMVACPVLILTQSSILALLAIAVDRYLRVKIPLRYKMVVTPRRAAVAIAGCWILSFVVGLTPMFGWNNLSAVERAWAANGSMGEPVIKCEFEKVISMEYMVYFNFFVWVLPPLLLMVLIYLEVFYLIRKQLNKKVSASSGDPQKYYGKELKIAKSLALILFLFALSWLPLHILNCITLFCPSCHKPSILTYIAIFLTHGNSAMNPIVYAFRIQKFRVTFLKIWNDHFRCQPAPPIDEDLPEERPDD
assay_endpoint: pKi
pKi here: minus log base 10 of the concentration, concentration in moles per litre.

These recorded examples may help you get a feel for the data.
- smiles_string: "Cc1ccc(-c2nc(NC(=O)CN3CCN(C)CC3)cc(-n3cccn3)n2)o1"
  pKi: 6.07
- smiles_string: "CN1CCN(CC(=O)Nc2cc(-c3ccccn3)nc(-c3cccs3)n2)CC1"
  pKi: 6.41
- smiles_string: "Cc1cc(C)n(-c2cc(NC(=O)CN3CCN(C)CC3)nc(-c3nccs3)n2)n1"
  pKi: 5.70
- smiles_string: "Cc1cc(C)n(-c2cc(NC(=O)CN3CCN(C)CC3)nc(-c3ccc(C)o3)n2)n1"
  pKi: 6.07

// moving on: another record for pKi
Fill blank: measured pKi of the molecule Cc1cc(C)n(-c2nc(NC(=O)CN3CCN(C)CC3)cc(-c3nccs3)n2)n1 is ____.
5.77
